experiment: NCI Yeast Anticancer Drug Screen. Data for the mlh1 rad18 strain (AID 175); conditions: S. cerevisiae mlh1 rad18 strain growth inhibition; at 50.0 µM (retest, dose inferred, filed as 5.0); stronger effect = higher value
This is part of a sample that, as a whole, favours compounds with a hit. Of some 79,000 tested, about 15% had one in any assay.
recorded_metric: growth inhibition (%)
Write the answer as a number in %, unit excluded.

CCN1CCNc2c3cc(OC)ccc3nc3c([N+](=O)[O-])ccc1c23; 41
CCCCCCCCCCCCOP(=O)(N1CC1(C)C)N1CC1(C)C (stereo not given); 87
Oc1ccc(-c2ccccc2)cc1Cl; 99
O=C(c1ccccc1)N(C1CCCCC1)C1CCCCC1; 97
CCCCCCCCCCCCCCCC(=O)N1CCOCC1; 93
C=CC(c1ccccc1)[C@@]1(OC(C)=O)C(=O)C(=O)OC1C1COC(C)(C)O1 (stereo not given in full); 98
CSC(=S)OC1CC(n2cnc3c(NC(=O)c4ccccc4)ncnc32)OC1CO[Si](C)(C)C(C)(C)C (stereo not given); -1
COC(=O)C1=C(C(=O)OC)C2(C)OC1C(=O)C21CC1 (stereo not given); 94
CCOc1cnn(-c2ccccc2)c(=O)c1SCc1ccc(Cl)c(Cl)c1; 56
C=C1CC(Cn2cc(C)c(=O)[nH]c2=O)(c2ccc(Cl)cc2)OC1=O (stereo not given); 91

Task: # input compound: CC1(C)CC(=O)C(CC2C(=O)c3ccccc3C2=O)C(=O)C1C(=O)C(=O)Nc1cccc2ccc(O)cc12 (stereo not given) ; wanted: its growth inhibition
Output: 52

Task: # input compound: O=C(c1ccc([N+](=O)[O-])cc1)c1[nH]c2ccccc2c(=O)c1-c1ccccc1 ; wanted: its growth inhibition
Output: 99

Task: # input compound: CCCCCCCCCCCCCCCC[N+](C)(C)CCl ; wanted: its growth inhibition
Output: 100

Task: # input compound: Oc1cc(C(c2ccccc2)c2ccccc2)c2ccccc2c1O ; wanted: its growth inhibition
Output: 1

Task: # input compound: COc1ccc2c(c1)CCCN2CCCCCCCCCCN1CCCCC1 ; wanted: its growth inhibition
Output: 25

* * *

assay: NCI Yeast Anticancer Drug Screen. Data for the sgs1 mgt1 strain (AID 161);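 further: 0% = growth of cultures given vehicle only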; conditions: S. cerevisiae sgs1 mgt1 strain, at 5.0 µM (retest, dose inferred, filed as 0.5), stronger effect = higher value
About 79,000 compounds went through this panel and 15% of them were active in at least one assay; those are over-represented in the sample as a whole.
recorded_metric: growth inhibition (%)
Write the answer as a number in %, unit excluded.

Task: # input molecule: O=C(O)c1ccc([N+](=O)[O-])cc1.[Ag] ; wanted: its growth inhibition
Output: 99

Task: # input molecule: Cc1cccc(N=Nc2ccc(O)cc2)c1 ; wanted: its growth inhibition
Output: -71

Task: # input molecule: CCCCCCCCCCCCCCCCCC(=O)OCCN1C(=O)c2ccccc2C1=O ; wanted: its growth inhibition
Output: 5

Task: # input molecule: C=CC(=O)Nc1ccccc1CC(c1c[nH]c2ccccc12)c1c[nH]c2ccccc12 ; wanted: its growth inhibition
Output: 34

Task: # input molecule: CCC(/C=C/C(C)C1CCC2C3CC=C4C/C(=N/NC(N)=O)CCC4(C)C3CCC12C)C(C)C (stereo not drawn) ; wanted: its growth inhibition
Output: -3

* * *

# growth inhibition listing for each entry below
assay: NCI Yeast Anticancer Drug Screen. Data for the rad50 strain (AID 155);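 further: 0% = growth of vehicle-only cultures of the same strain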; conditions: S. cerevisiae rad50 strain growth inhibition; at 50.0 µM (retest, dose inferred, filed as 5.0); stronger effect = higher value
Compounds without any hit were thinned out: in the full panel of roughly 79,000, 15% have a hit.
Write the answer as a number in %, unit excluded.

// solved cases for growth inhibition follow
CCN(CC)CCC(=O)c1ccc(Oc2ccc(C)cc2)cc1; 71
CC1=CC(=O)C(O)=C/C1=C\C=C\c1ccccc1; 98
CC(C)(Br)C(Br)C(=O)C(Br)C(C)(C)Br (configuration not stated); 8
Cc1ccc([N+](=O)[O-])cc1Cl; -4

Task: # input molecule: CCC(=NCCCCCCN=C(CC)c1cc(C)cc([N+](=O)[O-])c1O)c1cc(C)cc([N+](=O)[O-])c1O.[Fe] ; wanted: its growth inhibition
Output: 46

Task: # input molecule: O=C(CC(O)(c1ccccc1)c1ccc(Cl)cc1)NC(=O)c1ccccc1O (configuration not stated) ; wanted: its growth inhibition
Output: 93

Task: # input molecule: CC(C)C1=CC23CCC4C(C)(C(=O)O)CCCC4(C)C2CC1C1C(=O)C=CC(=O)C13 (configuration not stated) ; wanted: its growth inhibition
Output: 93
